Values compiled from PubChem BioAssay (NCATS).

System: CP286
Assay notes: qHTS profiling for inhibitors of Plasmodium falciparum proliferation (AID 504749); also: nearly all actives have a fitted effect of over 60% in size
Condition set: P. falciparum in erythrocytes, SYBR Green DNA, 72 h; series mostly up to 28.7 µM
Inconclusive results are not listed. Activity calls are given as the source filed them. Calls follow the shape of the dose curve; as a rule, active = well fitted inhibition curve with a large enough effect; inconclusive = small, poorly fitted or top-dose-only effect; inactive = flat fitted curve, though single readings scatter.
Property: outcome

Some compounds with known outcome results, for comparison:
Compound | Test system | outcome
CN1CCN(C(=O)O[C@H]2c3nccnc3C(=O)N2c2ccc(Cl)cn2)CC1 | CP286 | inactive
COc1ccccc1N1CCNCC1 | CP286 | inactive
CC1OC(C)OC(C)O1 (stereo not drawn) | CP286 | inactive
Cc1ccc(-c2nc3ccc(C)cn3c2CC(=O)N(C)C)cc1 | CP286 | inactive

Consider the compound shown here: Clc1cccc(N2CCNCC2)c1 What is its recorded outcome?
inactive

Consider the compound shown here: CC(C)(C)NCC(O)c1cc(Cl)c(N)c(Cl)c1 (stereo not drawn) What is its recorded outcome?
inactive

Consider the compound shown here: NN=C(N)N What is its recorded outcome?
inactive

Consider the compound shown here: Cn1c(CCCC(=O)O)nc2cc(N(CCCl)CCCl)ccc21 What is its recorded outcome?
inactive

Consider the compound shown here: CC(C)CC(N(C)C)C1(c2ccc(Cl)cc2)CCC1 (stereo not drawn) What is its recorded outcome?
inactive

Consider the compound shown here: Oc1ccc(Cl)cc1Cc1ccccc1 What is its recorded outcome?
inactive

Consider the compound shown here: CC(=O)Nc1cc([As](=O)(O)O)ccc1O What is its recorded outcome?
inactive

Consider the compound shown here: FC(F)(F)c1cccc(C2=CCN(CCc3ccc4ccccc4c3)CC2)c1 What is its recorded outcome?
inactive

Consider the compound shown here: CCN(C(C)=O)c1cccc(-c2ccnc3c(C#N)cnn23)c1 What is its recorded outcome?
inactive
